Data origin, for the record: ChEMBL document CHEMBL1156238

Record form. Attribute: pIC50. Fill in for each entry.
Experiment: Inhibition of HCV genotype 2b NS5B polymerase deltaC21 mutant
Parameters: species or system Hepatitis C virus subtype 2b
Give bare numbers, as −log10 of the molar value.

O=C1c2cccc3c(NC4CCN(Cc5ccccc5)CC4)ccc(c23)C(=O)N1c1cccc(Br)c1
7.37
CC(C)CNc1ccc2c(=O)n(-c3cccc(Cl)c3)c(=O)n(C)c2c1
5.30
O=C(O)c1cccc(CN2CCn3c(=O)n(-c4cccc(Cl)c4)c(=O)c4cccc2c43)c1
5.70
O=C1c2cccc3c(NCCO)ccc(c23)C(=O)N1c1cccc(Cl)c1
6.68
O=c1c2ccc(NCCO)c3c2n(c(=O)n1-c1cccc(Cl)c1)CCC3
6.17

Hi, could you look up pIC50 for each item in my list?
1. Cn1c(=O)n(-c2cccc(Cl)c2)c(=O)c2ccc(NCCO)cc21
2. Cn1c(=O)n(-c2cccc(Cl)c2)c(=O)c2ccc(NC3CCN(Cc4ccccc4)CC3)cc21
3. Cc1c(NC2CCN(Cc3ccccc3)CC2)ccc2c(=O)n(-c3cccc(Cl)c3)c3nncn3c12

Solution:
[5.09, 5.89, 6.40]

----------
Can you tell me selectivity ratio for the items I'm about to list?
Assay: Selectivity index, ratio of CC50 for human HBI10A cells to EC50 for Hepatitis C virus
Format: toxicity, cell-based
Conditions: read-out: Ratio CC50/EC50
Answers are plain numbers.

O=c1c2ccc(NC3CCN(Cc4ccccc4)CC3)c3c2n(c(=O)n1-c1cccc(Cl)c1)CCC3
5.9

Hey, quick one: what's selectivity ratio for each of these?
1. O=c1c2ccc(NC3CCN(Cc4ccccc4)CC3)cc2n2ccnc2n1-c1cccc(Cl)c1
2. O=C(NC1CCN(Cc2ccccc2)CC1)c1cccc2c(=O)n(-c3cccc(Cl)c3)c(=O)[nH]c12
3. O=C1c2cccc3c(NCCO)ccc(c23)C(=O)N1c1cccc(Cl)c1
4. O=C1c2cccc3c(NC4CCN(Cc5ccccc5)CC4)ccc(c23)C(=O)N1c1cccc(Br)c1
5. CC[n+]1c(-c2ccccc2)c2cc(N)ccc2c2ccc(N)cc21 [HOMIDIUM BROMIDE]

Solution:
1: 0.9; 2: 1.8; 3: 6.8; 4: 2.4; 5: 0.85

----------
Assay: Inhibition of HCV genotype 2b NS5B polymerase deltaC21 mutant
Design: species or system Hepatitis C virus subtype 2b
pIC50: −log10 of the molar value.
Think of 6 as a floor: if pIC50 stands on it or above, it is met; beneath it, not met.

Solved entries:
O=c1c2ccc(NCCO)cc2n2ccnc2n1-c1cccc(Cl)c1
not met
CC1CCC(Nc2ccc3c(=O)n(-c4cccc(Cl)c4)c(=O)n(C)c3c2)CC1 (stereo not given)
not met
O=c1c2ccc(N[C@H]3CC[C@@H](C(=O)O)CC3)c3c2n(c(=O)n1-c1cccc(Cl)c1)CCC3
met
O=c1c2cccc3c2n(c(=O)n1-c1cccc(Cl)c1)CCN3CCCO
not met
Cc1c(NCCO)ccc2c(=O)n(-c3cccc(Cl)c3)c(=O)n(C)c12
not met
O=C1c2cccc3c(NCCO)ccc(c23)C(=O)N1c1cccc(Br)c1
met
Cc1c(NCCO)ccc2c(=O)n(-c3cccc(Cl)c3)c3nncn3c12
not met

Proceed to the following item.
Exercise: Has O=c1c2ccc(NC3CCN(Cc4ccccc4)CC3)c3c2n(c(=O)n1-c1cccc(Cl)c1)CCC3 a recorded pIC50 greater than or equal to 6?
Solution: met
